- Test system: Puccinia triticina
- procedure details: Wheat Brown Rust fungicidal activity (PUCCRT)
- Format: in vivo
- recorded conditions: Puccinia triticina, 72 h, 3 Day Curative, rate 121.5 g/H, read-out: Disease control PUCCRT 3DC
The following compounds are listed with their measured pest or weed control at 121.5 g/ha values.
property measured: pest or weed control at 121.5 g/ha

[[record]]
structure_notation = "COc1ccnc(C(=O)N[C@H]2COC[C@H](CCc3ccccc3)[C@@H](OC(=O)C3CC3)[C@H](C)OC2=O)c1OC(C)=O"
system_name = "Puccinia triticina"
reported = "0 to 80%"

[[record]]
structure_notation = "COc1ccnc(C(=O)N[C@H]2COC[C@H](Cc3cccc4ccccc34)[C@@H](OCC(C)C)[C@H](C)OC2=O)c1OCOC(C)=O"
system_name = "Puccinia triticina"
reported = "0 to 80%"

[[record]]
structure_notation = "COc1ccnc(C(=O)N[C@H]2COC[C@H](Cc3ccc(Cl)cc3Cl)[C@@H](OC(=O)C(C)C)[C@H](C)OC2=O)c1OC(C)=O"
system_name = "Puccinia triticina"
reported = "0 to 80%"

[[record]]
structure_notation = "COc1ccnc(C(=O)N[C@H]2COC[C@H](CCC(C)C)[C@@H](OCCCC(F)(F)F)[C@H](C)OC2=O)c1OCOC(C)=O"
system_name = "Puccinia triticina"
reported = "80 to 100%"

[[record]]
structure_notation = "CCCCCO[C@@H]1[C@@H](Cc2ccc(C)cc2)COC[C@H](NC(=O)c2nccc(OC)c2OC(C)=O)C(=O)O[C@H]1C"
system_name = "Puccinia triticina"
reported = "0 to 80%"

[[record]]
structure_notation = "COc1ccnc(C(=O)N[C@H]2COC[C@H](Cc3ccc(C(F)(F)F)cc3)[C@@H](OCC(C)C)[C@H](C)OC2=O)c1OCOC(C)=O"
system_name = "Puccinia triticina"
reported = "0 to 80%"

[[record]]
structure_notation = "COc1ccnc(C(=O)N[C@H]2COC[C@H](Cc3ccc(C)cc3)[C@@H](OCC(C)C)[C@H](C)OC2=O)c1OCOC(C)=O"
system_name = "Puccinia triticina"
reported = "80 to 100%"

[[record]]
structure_notation = "COc1ccnc(C(=O)N[C@H]2COC[C@H](CCC(C)C)[C@@H](OCC(C)C)[C@H](C)OC2=O)c1OC(C)=O"
system_name = "Puccinia triticina"
reported = "80 to 100%"

[[record]]
structure_notation = "COc1ccnc(C(=O)N[C@H]2COC[C@H](Cc3ccc(C)cc3)[C@@H](OC(=O)C(C)C)[C@H](C)OC2=O)c1OC(C)=O"
system_name = "Puccinia triticina"
reported = "0 to 80%"

[[record]]
structure_notation = "CCCCCO[C@@H]1[C@@H](Cc2ccc(Cl)cc2Cl)COC[C@H](NC(=O)c2nccc(OC)c2OCOC(=O)COCC)C(=O)O[C@H]1C"
system_name = "Puccinia triticina"
reported = "0 to 80%"

[[record]]
structure_notation = "COc1ccnc(C(=O)N[C@H]2COC[C@H](Cc3cc(F)c(F)c(F)c3)[C@@H](OCC(C)C)[C@H](C)OC2=O)c1OC(C)=O"
system_name = "Puccinia triticina"
reported = "80 to 100%"

[[record]]
structure_notation = "CCCCCO[C@@H]1[C@@H](CC2CCCC2)COC[C@H](NC(=O)c2nccc(OC)c2OCOC(C)=O)C(=O)O[C@H]1C"
system_name = "Puccinia triticina"
reported = "80 to 100%"

[[record]]
structure_notation = "COc1ccnc(C(=O)N[C@H]2COC[C@H](CCc3ccccc3)[C@@H](OC(=O)C3CC3)[C@H](C)OC2=O)c1OCOC(C)=O"
system_name = "Puccinia triticina"
reported = "80 to 100%"


====

- System: Puccinia triticina
- procedure details: Wheat Brown Rust fungicidal activity (PUCCRT)
- Type: in vivo
- recorded conditions: Puccinia triticina, 72 h, 3 Day Curative, rate 121.5 g/H, read-out: Disease control PUCCRT 3DC
property measured: pest or weed control at 121.5 g/ha

[[record]]
structure_notation = "COc1ccnc(C(=O)N[C@H]2COC[C@H](Cc3ccc(F)cc3)[C@@H](OC3CCCC3)[C@H](C)OC2=O)c1OCOC(C)=O"
property_measured = "pest or weed control at 121.5 g/ha"
reported = "80 to 100%"

[[record]]
structure_notation = "COc1ccnc(C(=O)N[C@H]2COC[C@H](Cc3ccc(F)cc3)[C@@H](OCC(C)C)[C@H](C)OC2=O)c1OCOC(C)=O"
property_measured = "pest or weed control at 121.5 g/ha"
reported = "80 to 100%"

[[record]]
structure_notation = "COc1ccnc(C(=O)N[C@H]2COC[C@H](Cc3ccc(C(F)(F)F)cc3)[C@@H](OC(=O)C3CC3)[C@H](C)OC2=O)c1OCOC(C)=O"
property_measured = "pest or weed control at 121.5 g/ha"
reported = "0 to 80%"

[[record]]
structure_notation = "COc1ccnc(C(=O)N[C@H]2COC[C@H](Cc3ccc(C(F)(F)F)cc3)[C@@H](OC3CCCC3)[C@H](C)OC2=O)c1OC(C)=O"
property_measured = "pest or weed control at 121.5 g/ha"
reported = "0 to 80%"

[[record]]
structure_notation = "COc1ccnc(C(=O)N[C@H]2COC[C@H](CCc3ccccc3)[C@@H](OCC(C)C)[C@H](C)OC2=O)c1OCOC(C)=O"
property_measured = "pest or weed control at 121.5 g/ha"
reported = "80 to 100%"

[[record]]
structure_notation = "COc1ccnc(C(=O)N[C@H]2COC[C@H](Cc3cc(F)c(F)c(F)c3)[C@@H](OCC(C)C)[C@H](C)OC2=O)c1OCOC(C)=O"
property_measured = "pest or weed control at 121.5 g/ha"
reported = "80 to 100%"

[[record]]
structure_notation = "COc1ccnc(C(=O)N[C@H]2COC[C@H](CCC(C)C)[C@@H](OCC(C)C)[C@H](C)OC2=O)c1OCOC(C)=O"
property_measured = "pest or weed control at 121.5 g/ha"
reported = "80 to 100%"

[[record]]
structure_notation = "COc1ccnc(C(=O)N[C@H]2COC[C@H](CC3CCCC3)[C@@H](OC(=O)C(C)C)[C@H](C)OC2=O)c1OC(C)=O"
property_measured = "pest or weed control at 121.5 g/ha"
reported = "80 to 100%"

[[record]]
structure_notation = "COc1ccnc(C(=O)N[C@H]2COC[C@H](Cc3ccc(F)cc3)[C@@H](OCCCC(F)(F)F)[C@H](C)OC2=O)c1OCOC(C)=O"
property_measured = "pest or weed control at 121.5 g/ha"
reported = "80 to 100%"

[[record]]
structure_notation = "COc1ccnc(C(=O)N[C@H]2COC[C@H](CC3CCCC3)[C@@H](OC(=O)C(C)C)[C@H](C)OC2=O)c1OCOC(C)=O"
property_measured = "pest or weed control at 121.5 g/ha"
reported = "80 to 100%"

[[record]]
structure_notation = "COc1ccnc(C(=O)N[C@H]2COC[C@H](Cc3ccc(Cl)cc3Cl)[C@@H](Oc3ccc(C)cc3)[C@H](C)OC2=O)c1OC(C)=O"
property_measured = "pest or weed control at 121.5 g/ha"
reported = "0 to 80%"

[[record]]
structure_notation = "CCOCC(=O)OCOc1c(OC)ccnc1C(=O)N[C@H]1COC[C@H](CC2CCCC2)[C@@H](OC(=O)C(C)C)[C@H](C)OC1=O"
property_measured = "pest or weed control at 121.5 g/ha"
reported = "80 to 100%"

[[record]]
structure_notation = "COc1ccnc(C(=O)N[C@H]2COC[C@H](Cc3ccc(C)cc3)[C@@H](OCC(C)C)[C@H](C)OC2=O)c1OC(C)=O"
property_measured = "pest or weed control at 121.5 g/ha"
reported = "80 to 100%"


====

- Test system: Puccinia triticina
- procedure details: Wheat Brown Rust fungicidal activity (PUCCRT)
- Format: in vivo
- recorded conditions: Puccinia triticina, 24 h, 1 Day Protectant, rate 100 ppm, read-out: Disease control PUCCRT 1DP
The following molecules are listed with their measured pest or weed control at 100 ppm values.
property measured: pest or weed control at 100 ppm

[[record]]
molecule = "COc1ccnc(C(=O)N[C@H]2COC[C@H](CC3CCCC3)[C@@H](OC(=O)C(C)C)[C@H](C)OC2=O)c1O [Compound F45]"
system_name = "Puccinia triticina"
reported = "80 to 100%"

[[record]]
molecule = "CCCCCO[C@@H]1[C@@H](Cc2cccc3ccccc23)COC[C@H](NC(=O)c2nccc(OC)c2O)C(=O)O[C@H]1C [Compound F7]"
system_name = "Puccinia triticina"
reported = "80 to 100%"

[[record]]
molecule = "COc1ccnc(C(=O)N[C@H]2COC[C@H](CCc3ccccc3)[C@@H](OC3CCCC3)[C@H](C)OC2=O)c1OCOC(C)=O [Compound F81]"
system_name = "Puccinia triticina"
reported = "80 to 100%"

